# Tested on: P12-Ichikawa
# experiment description: cell viability relative to DMSO control; higher = less cytotoxic
# condition summary: HPLM + 10% dialyzed FBS; 48 h; 0.569 µM
measured quantity: cell viability (%)
Provide the reading as a plain figure in %.

{"compound": "Oc1ccc([C@@H]2Oc3ccc(O)cc3[C@@H]3CCC[C@@H]32)cc1", "readout unit": "%", "cell viability": 94.3}
{"compound": "CCCCCN(CCC12CC3CC(CC(C3)C1)C2)C(=O)NCCCc1ccncc1", "readout unit": "%", "cell viability": 109}
{"compound": "COc1cc(Cl)cn2c(-c3cccc(NC4CNC4)n3)cnc12", "readout unit": "%", "cell viability": 131}

IN: # cell viability lookup, item COc1ccc(C2(C#N)CCC(C(=O)O)CC2)cc1OC1CCCC1 (stereo not drawn)
OUT: 103

IN: # cell viability lookup, item `COc1cc(OC)c(C(=O)CCCN2CCCC2)c(OC)c1`
OUT: 112

IN: # cell viability lookup, item `CCc1cc(-c2n[nH]c(C)c2-c2ccc3c(c2)OCCO3)c(O)cc1O`
OUT: 131

IN: # cell viability lookup, item `Oc1ccc(-c2ccc(-c3cc(Nc4cccc(CNC5CC5)c4)[nH]n3)cc2)c(O)c1`
OUT: 104

IN: # cell viability lookup, item `Cc1ccc(-c2cc(C(F)(F)F)nn2-c2ccc([S+](N)(=O)[O-])cc2)cc1`
OUT: 128

IN: # cell viability lookup, item `C[C@H](NCc1ccc(OCc2cccc(F)c2)cc1)C(N)=O`
OUT: 114

* * *

# Tested on: P12-Ichikawa
# experiment description: cell viability relative to DMSO control; higher = less cytotoxic
# condition summary: HPLM + 10% dialyzed FBS; 48 h; 1.71 µM
measured quantity: cell viability (%)
Provide the reading as a plain figure in %.

{"compound": "CC(S)C(=O)NCC(=O)O (stereo not given)", "measured quantity": "cell viability", "readout unit": "%", "result number": 117}

IN: # cell viability lookup, item `COc1cc(Cl)cn2c(-c3cccc(NC4CNC4)n3)cnc12`
OUT: 135

IN: # cell viability lookup, item `Nc1nc(NCCNc2ncc(-n3ccnc3)c(-c3ccc(Cl)cc3Cl)n2)ccc1[N+](=O)[O-]`
OUT: 131

IN: # cell viability lookup, item `COC(=O)[C@H](c1ccccc1Cl)N1CCc2sccc2C1`
OUT: 110

IN: # cell viability lookup, item `N#CC[C@H](C1CCCC1)n1cc(-c2ncnc3[nH]ccc23)cn1`
OUT: 91.8

* * *

# Test system: P12-Ichikawa
# experiment description: AUC of viability dose-response curve (% viability x log10 dose units); higher = less sensitive
# condition summary: HPLM + 10% dialyzed FBS; 48 h
measured quantity: AUC of viability dose-response curve
API doc: respond with a numeric literal and nothing else, no unit.

Here is how some molecules turned out for AUC of viability dose-response curve.
{"smiles record": "N[C@@H](Cc1ccc(O)c(O)c1)C(=O)O", "target or system": "P12-Ichikawa", "measured quantity": "AUC of viability dose-response curve", "result number": 471}
{"smiles record": "CC/1=C(\\CCN2CCC(CC2)C3=NOC4=C3C=CC(=C4)F)C(=O)N/5CCCCC5=N1", "target or system": "P12-Ichikawa", "measured quantity": "AUC of viability dose-response curve", "result number": 463}
{"smiles record": "NCCc1c[nH]cn1", "target or system": "P12-Ichikawa", "measured quantity": "AUC of viability dose-response curve", "result number": 456}
{"smiles record": "Oc1ccc(-c2ccc(-c3cc(Nc4cccc(CNC5CC5)c4)[nH]n3)cc2)c(O)c1", "target or system": "P12-Ichikawa", "measured quantity": "AUC of viability dose-response curve", "result number": 403}
{"smiles record": "CCc1cc(-c2n[nH]c(C)c2-c2ccc3c(c2)OCCO3)c(O)cc1O", "target or system": "P12-Ichikawa", "measured quantity": "AUC of viability dose-response curve", "result number": 455}
{"smiles record": "COC(=O)N[C@H](C(=O)N1CCC[C@H]1c1ncc(-c2ccc(-c3ccc(-c4cnc([C@@H]5CCCN5C(=O)[C@@H](NC(=O)OC)C(C)C)[nH]4)cc3)cc2)[nH]1)C(C)C", "target or system": "P12-Ichikawa", "measured quantity": "AUC of viability dose-response curve", "result number": 473}
{"smiles record": "O=[S+]([O-])(NCCNC/C=C/c1ccc(Br)cc1)c1cccc2cnccc12", "target or system": "P12-Ichikawa", "measured quantity": "AUC of viability dose-response curve", "result number": 462}

Now examine the next entry.
IN: Hello, I am looking for reported AUC of viability dose-response curve with P12-Ichikawa for `C[N]1N=CC=C1C/2=C(\C)N(C(=O)C(=C2)/C(=O)NCC3=NC=C(C=C3)[S+](C)([O-])=O)C4=CC=CC(=C4)C(F)(F)F` . Could you help?
OUT: 462
